List of Activity values.
Molecular target: Protein cereblon/Tyrosine-protein kinase ABL1/Breakpoint cluster region protein (Homo sapiens, UniProt P00519+P11274+Q96SW2)
Sequence (P00519 whole entry, looked up): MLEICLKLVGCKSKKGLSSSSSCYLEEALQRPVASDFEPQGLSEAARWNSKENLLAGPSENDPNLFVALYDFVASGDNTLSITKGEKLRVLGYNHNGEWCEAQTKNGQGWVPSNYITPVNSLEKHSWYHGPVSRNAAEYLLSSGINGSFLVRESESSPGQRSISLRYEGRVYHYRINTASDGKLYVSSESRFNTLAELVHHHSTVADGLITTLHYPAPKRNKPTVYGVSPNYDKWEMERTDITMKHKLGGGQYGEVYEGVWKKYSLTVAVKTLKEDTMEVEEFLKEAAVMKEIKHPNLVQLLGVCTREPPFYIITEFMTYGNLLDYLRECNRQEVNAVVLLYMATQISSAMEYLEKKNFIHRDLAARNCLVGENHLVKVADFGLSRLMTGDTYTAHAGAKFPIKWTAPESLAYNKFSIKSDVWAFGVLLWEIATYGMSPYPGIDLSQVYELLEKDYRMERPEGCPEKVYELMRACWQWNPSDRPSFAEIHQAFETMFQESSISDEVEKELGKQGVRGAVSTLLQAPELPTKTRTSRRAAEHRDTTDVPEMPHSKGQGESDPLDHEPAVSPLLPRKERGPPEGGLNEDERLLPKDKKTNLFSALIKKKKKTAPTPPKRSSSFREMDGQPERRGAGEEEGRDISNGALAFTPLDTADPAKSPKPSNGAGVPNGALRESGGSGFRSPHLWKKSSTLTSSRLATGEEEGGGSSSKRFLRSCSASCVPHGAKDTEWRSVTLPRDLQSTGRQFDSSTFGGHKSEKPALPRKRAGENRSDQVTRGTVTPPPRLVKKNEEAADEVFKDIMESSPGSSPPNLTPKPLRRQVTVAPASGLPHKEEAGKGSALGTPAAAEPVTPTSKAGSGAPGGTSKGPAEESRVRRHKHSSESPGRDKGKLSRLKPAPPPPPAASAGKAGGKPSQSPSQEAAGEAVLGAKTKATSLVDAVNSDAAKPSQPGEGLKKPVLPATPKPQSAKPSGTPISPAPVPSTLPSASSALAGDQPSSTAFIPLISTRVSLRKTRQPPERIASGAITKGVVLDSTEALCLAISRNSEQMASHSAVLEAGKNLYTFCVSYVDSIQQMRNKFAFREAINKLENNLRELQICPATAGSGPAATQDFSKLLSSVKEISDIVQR
Sequence (P11274 whole entry, looked up): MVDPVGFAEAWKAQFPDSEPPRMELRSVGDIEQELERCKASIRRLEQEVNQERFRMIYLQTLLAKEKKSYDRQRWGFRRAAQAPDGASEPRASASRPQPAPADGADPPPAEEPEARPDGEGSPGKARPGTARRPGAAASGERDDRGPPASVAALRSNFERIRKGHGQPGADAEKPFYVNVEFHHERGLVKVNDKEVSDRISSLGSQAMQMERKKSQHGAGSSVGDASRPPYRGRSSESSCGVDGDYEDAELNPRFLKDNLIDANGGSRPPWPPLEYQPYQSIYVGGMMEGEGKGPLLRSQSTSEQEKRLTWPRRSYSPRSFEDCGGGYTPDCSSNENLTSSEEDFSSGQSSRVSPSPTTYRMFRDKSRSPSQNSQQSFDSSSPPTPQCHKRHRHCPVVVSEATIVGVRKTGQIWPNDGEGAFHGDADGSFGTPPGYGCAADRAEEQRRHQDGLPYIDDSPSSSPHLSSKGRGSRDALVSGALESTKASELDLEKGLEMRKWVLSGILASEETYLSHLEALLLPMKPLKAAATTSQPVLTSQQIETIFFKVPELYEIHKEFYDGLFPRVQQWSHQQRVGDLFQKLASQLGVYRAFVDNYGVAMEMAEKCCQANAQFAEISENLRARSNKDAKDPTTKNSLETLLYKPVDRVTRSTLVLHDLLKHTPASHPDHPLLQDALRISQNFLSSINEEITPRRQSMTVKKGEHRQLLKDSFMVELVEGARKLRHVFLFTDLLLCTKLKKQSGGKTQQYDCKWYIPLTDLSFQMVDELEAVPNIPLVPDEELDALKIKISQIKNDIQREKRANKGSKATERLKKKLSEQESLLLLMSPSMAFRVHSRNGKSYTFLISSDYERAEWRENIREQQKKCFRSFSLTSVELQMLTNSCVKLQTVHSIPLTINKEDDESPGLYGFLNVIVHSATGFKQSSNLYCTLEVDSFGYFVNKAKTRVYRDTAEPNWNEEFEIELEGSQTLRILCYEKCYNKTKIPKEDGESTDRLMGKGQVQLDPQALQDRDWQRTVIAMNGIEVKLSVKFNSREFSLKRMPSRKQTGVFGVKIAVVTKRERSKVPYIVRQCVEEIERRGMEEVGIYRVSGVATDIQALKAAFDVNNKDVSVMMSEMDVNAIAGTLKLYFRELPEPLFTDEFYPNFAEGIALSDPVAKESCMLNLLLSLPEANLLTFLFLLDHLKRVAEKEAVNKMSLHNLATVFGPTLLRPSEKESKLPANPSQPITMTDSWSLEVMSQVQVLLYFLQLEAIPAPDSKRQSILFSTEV
Sequence (Q96SW2 whole entry, looked up): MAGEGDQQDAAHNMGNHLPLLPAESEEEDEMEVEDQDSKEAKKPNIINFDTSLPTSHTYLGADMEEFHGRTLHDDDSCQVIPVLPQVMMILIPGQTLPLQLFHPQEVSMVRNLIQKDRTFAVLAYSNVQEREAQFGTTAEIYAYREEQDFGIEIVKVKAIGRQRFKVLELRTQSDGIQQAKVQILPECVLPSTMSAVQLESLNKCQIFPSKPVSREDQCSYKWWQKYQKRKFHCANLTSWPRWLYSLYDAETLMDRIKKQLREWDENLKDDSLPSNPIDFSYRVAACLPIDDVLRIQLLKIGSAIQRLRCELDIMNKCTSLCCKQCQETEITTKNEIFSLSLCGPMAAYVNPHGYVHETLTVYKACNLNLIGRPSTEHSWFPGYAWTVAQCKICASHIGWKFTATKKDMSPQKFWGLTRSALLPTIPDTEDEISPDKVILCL
Test: Protac activity at CRBN/BCR-ABL in human K562 cells assessed as increase in BCR-ABL degradation at 5 nM by Western blotting analysis
Type: cell-based
Please state the value followed by its unit.

INSERT INTO results (compound, result) VALUES
  ('O=C1CCC(N2Cc3c(SCCCN4CCN(c5ncc(C(=O)Nc6ccc(OC(F)(F)Cl)cc6)cc5-c5ccn[nH]5)CC4)cccc3C2=O)C(=O)N1 (stereo not drawn)', '48.4%'),
  ('O=C1CCC(N2Cc3c(SCCCCCCCN4CCN(C5CCN(c6ncc(C(=O)Nc7ccc(OC(F)(F)Cl)cc7)cc6-c6ccn[nH]6)CC5)CC4)cccc3C2=O)C(=O)N1 (stereo not drawn)', '21.9%'),
  ('O=C1CCC(N2Cc3c(SCCCCCNC4CCN(c5ncc(C(=O)Nc6ccc(OC(F)(F)Cl)cc6)cc5-c5ccn[nH]5)CC4)cccc3C2=O)C(=O)N1 (stereo not drawn)', '-3.96%'),
  ('O=C1CCC(N2Cc3c(SCCCCCCN4CCN(C5CCN(c6ncc(C(=O)Nc7ccc(OC(F)(F)Cl)cc7)cc6-c6ccn[nH]6)CC5)CC4)cccc3C2=O)C(=O)N1 (stereo not drawn)', '81.8%'),
  ('O=C1CCC(N2Cc3c(SCCCCN4CCN(c5ncc(C(=O)Nc6ccc(OC(F)(F)Cl)cc6)cc5-c5ccn[nH]5)CC4)cccc3C2=O)C(=O)N1 (stereo not drawn)', '40.8%');

The recorded Activity for entry O=C1CCC(N2Cc3c(SCCCCCCNC4CCN(c5ncc(C(=O)Nc6ccc(OC(F)(F)Cl)cc6)cc5-c5ccn[nH]5)CC4)cccc3C2=O)C(=O)N1 (stereo not drawn) equals 29.4%

The recorded Activity for entry O=C1CCC(N2Cc3c(C#CCCCCN4CCN(c5ncc(C(=O)Nc6ccc(OC(F)(F)Cl)cc6)cc5-c5ccn[nH]5)CC4)cccc3C2=O)C(=O)N1 (stereo not drawn) equals 32.8%

The recorded Activity for entry O=C1CCC(N2Cc3c(SCCCCNC4CCN(c5ncc(C(=O)Nc6ccc(OC(F)(F)Cl)cc6)cc5-c5ccn[nH]5)CC4)cccc3C2=O)C(=O)N1 (stereo not drawn) equals 5.76%

----------
List of IC50 values.
Test system: K562
Test: cells
Conditions: Homo sapiens, K562, 48 h
Description: Antiproliferative activity against human K562 cells assessed as inhibition of cell growth incubated for 2 days by CCK8 assay
# unit: nM | format: bare number

// known answers, use as guide
INSERT INTO results (compound, measured_endpoint, result) VALUES
  ('O=C1CCC(N2Cc3c(SCCCCNc4ncc(C(=O)Nc5ccc(OC(F)(F)Cl)cc5)cc4-c4ccn[nH]4)cccc3C2=O)C(=O)N1 (configuration not stated)', 'IC50', 928),
  ('O=C1CCC(N2Cc3c(SCCCCCCNC4CCN(c5ncc(C(=O)Nc6ccc(OC(F)(F)Cl)cc6)cc5-c5ccn[nH]5)CC4)cccc3C2=O)C(=O)N1 (configuration not stated)', 'IC50', 228),
  ('O=C1CCC(N2Cc3c(C#CCCCCN4CCN(c5ncc(C(=O)Nc6ccc(OC(F)(F)Cl)cc6)cc5-c5ccn[nH]5)CC4)cccc3C2=O)C(=O)N1 (configuration not stated)', 'IC50', 40.9),
  ('O=C1CCC(N2Cc3c(SCCOCC(=O)N4CCN(c5ncc(C(=O)Nc6ccc(OC(F)(F)Cl)cc6)cc5-c5ccn[nH]5)CC4)cccc3C2=O)C(=O)N1 (configuration not stated)', 'IC50', 154);

The recorded IC50 for entry O=C1CCC(N2Cc3c(SCCCN4CCN(c5ncc(C(=O)Nc6ccc(OC(F)(F)Cl)cc6)cc5-c5ccn[nH]5)CC4)cccc3C2=O)C(=O)N1 (configuration not stated) equals 137
